Biological target: T1, HLA-A*02:01 (peptide-receptive MHC class I monomer after UV-ligand exchange) (human)
T1 construct: Monomers made with a UV-sensitive peptide that is cleaved by UV and exchanged for the test peptide; captured on streptavidin plates; also called MHC molecules
Assay: UV-ligand exchange + anti-b2m ELISA; exchange yield grade: + >=10%, ++ >=20%, +++ >=50, ++++ >=75%
binders and their reported peptide exchange yield

Solved entries (count: 5):
[
  {
    "Binder": "VVSGATETL [peptide VVSGATETL (SEQ ID NO: 60)]",
    "peptide exchange yield": "≥ 75%"
  },
  {
    "Binder": "KLLEIDIDGV [peptide KLLEIDIDGV (SEQ ID NO: 83)]",
    "peptide exchange yield": "50 to 75%"
  },
  {
    "Binder": "YLQDYTDRV [peptide YLQDYTDRV (SEQ ID NO: 92)]",
    "peptide exchange yield": "50 to 75%"
  },
  {
    "Binder": "ALFARPDLLLL [peptide ALFARPDLLLL (SEQ ID NO: 102)]",
    "peptide exchange yield": "≥ 75%"
  },
  {
    "Binder": "ILVSQLEQL [peptide ILVSQLEQL (SEQ ID NO: 28)]",
    "peptide exchange yield": "≥ 75%"
  }
]

# input Form field: reported peptide exchange yield of VLLSGLTEV [peptide VLLSGLTEV (SEQ ID NO: 59)]
# output ≥ 75%

# input // repeat for KMFENEFLL [peptide KMFENEFLL (SEQ ID NO: 84)] and report
# output 50 to 75%

# input Now the binder HLFDIILTSV [peptide HLFDIILTSV (SEQ ID NO: 54)]
# output ≥ 75%

# input For SLITDLQTI [peptide SLITDLQTI (SEQ ID NO: 124)] then?
# output 50 to 75%

# input Field entry: RLLQDPVGV [peptide RLLQDPVGV (SEQ ID NO: 31)]
# output ≥ 75%
